These data points were gathered from patent US20050106305A1.

# experiment: Sensory stability of monatin and aspartame at pH 2.5, 3.0, 4.0 at 40° C.
# Format: physicochemical
# details: phosphate/citrate buffer; pH 4.0, 40° C.; pseudo-first order assumed; read-out: Half-life (t½) of sweetness loss (converted)
# Procedure: The sensory stability of monatin solutions prepared at pH 2.5, 3.0 and 4.0 and stored at 40° C. was monitored for 100 days. Loss of sweetness from these solutions was compared with the losses of sweetness from aspartame solutions prepared and stored under identical conditions. […] The sweetness of each sweetener relative to sucrose was assessed in duplicate by a panel (n=8) of trained sensory evaluators experienced in the sweetness estimation procedure. […]
Where a SMILES comes first, the peptide text is derived from it.
readout.name: half-life (days)

A: COC(=O)[C@H](Cc1ccccc1)NC(=O)[C@@H](N)CC(=O)O [Aspartame, aspartame] (H-Asp-Phe-OMe)
B: NC(CC(O)(Cc1c[nH]c2ccccc12)C(=O)O)C(=O)O (racemic) [Monatin]
[ask] Lower value of half-life belongs to which: A or B ? Response format: the label of the selected entry.
[reply] A
(A: 140 days, B: 230 days)
